target: Zika virus envelope protein (Zika virus, UniProt A0A024B7W1 291-694); test: bead-based fluorescence binding assay; protein on magnetic beads; Bead assay: room temperature, 1 h, envelope protein 0.15 mg/mL on magnetic beads, aptamer 3 nM-1 uM, DIW wash; binding buffer not stated (folding predicted at 140 mM Na+, 5 mM Mg2+). Sensor: ACEF 10 min, read in 1 M KCl pH 7.; conditions: protein: commercial; label: 5' 6-FAM; stem-loops (mfold prediction)
PROPERTY_LABEL: pKd
Quick note: pKd means taking -log10 of the concentration in moles per liter.

(Q) Return pKd for the following binder: TGCGCACTGAACGATCCTGCGTCAAGTTCAAGGTTGTG (structured_DNA) [truncated Zika aptamer (T-ZV apt), 5'-FAM]
(A) 6.48
